Here the recorded log10 of IC50 is given for each entry.
- study_target: Histone deacetylase
- assay_text: Inhibition of HDAC in human HeLa cell extract using Boc-Lys (acetyl)-AMC as substrate incubated for 10 mins prior to substrate addition measured after 30 mins by fluorescence assay
- Assay type: protein assay
measurement_type: log10 of IC50 (log10 of the value in nM)

- molecule: "O=C(/C=C/c1cccc(OC[C@H](Cc2c[nH]c3ccccc23)NC(=O)CCCc2ccccc2)c1)NO"
  log10 of IC50: 2.70
- molecule: "O=C(/C=C/c1cccc(OC[C@H](Cc2c[nH]c3ccccc23)NC(=O)c2ccccc2)c1)NO"
  log10 of IC50: 2.62
- molecule: "CC(C)(C)OC(=O)N[C@H](COc1cccc(/C=C/C(=O)NO)c1)Cc1c[nH]c2ccccc12"
  log10 of IC50: 2.96
- molecule: "O=C(/C=C/c1cccc(OC[C@H](Cc2c[nH]c3ccccc23)NC(=O)c2cccc(Cl)c2)c1)NO"
  log10 of IC50: 2.55
- molecule: "CC(C)(C)OC(=O)NCC(=O)N[C@H](COc1cccc(/C=C/C(=O)NO)c1)Cc1c[nH]c2ccccc12"
  log10 of IC50: 2.95
- molecule: "O=C(/C=C/c1cccc(OC[C@H](Cc2c[nH]c3ccccc23)NC(=O)c2ccccc2Cl)c1)NO"
  log10 of IC50: 1.91
- molecule: "O=C(/C=C/c1cccc(OC[C@H](Cc2c[nH]c3ccccc23)NC(=O)c2ccc(Br)cc2)c1)NO"
  log10 of IC50: 2.84
- molecule: "COc1cccc(C(=O)N[C@H](COc2cccc(/C=C/C(=O)NO)c2)Cc2c[nH]c3ccccc23)c1"
  log10 of IC50: 1.83
- molecule: "O=C(/C=C/c1cccc(OC[C@H](Cc2c[nH]c3ccccc23)NC(=O)c2cc(Cl)cc(Cl)c2)c1)NO"
  log10 of IC50: 2.89
- molecule: "O=C(/C=C/c1cccc(OC[C@H](Cc2c[nH]c3ccccc23)NC(=O)c2ccc(Cl)cc2Cl)c1)NO"
  log10 of IC50: 2.41
- molecule: "O=C(/C=C/c1cccc(OC[C@H](Cc2c[nH]c3ccccc23)NC(=O)Cc2ccccc2)c1)NO"
  log10 of IC50: 2.65
- molecule: "Cc1ccc(C(=O)N[C@H](COc2cccc(/C=C/C(=O)NO)c2)Cc2c[nH]c3ccccc23)cc1"
  log10 of IC50: 2.34
- molecule: "COc1ccccc1C(=O)N[C@H](COc1cccc(/C=C/C(=O)NO)c1)Cc1c[nH]c2ccccc12"
  log10 of IC50: 1.59
- molecule: "O=C(/C=C/c1cccc(OC[C@H](Cc2c[nH]c3ccccc23)NC(=O)CCc2ccccc2)c1)NO"
  log10 of IC50: 2.67
- molecule: "COc1ccc(C(=O)N[C@H](COc2cccc(/C=C/C(=O)NO)c2)Cc2c[nH]c3ccccc23)cc1"
  log10 of IC50: 2.28
- molecule: "CC(NC(=O)OC(C)(C)C)C(=O)N[C@H](COc1cccc(/C=C/C(=O)NO)c1)Cc1c[nH]c2ccccc12 (stereo partly specified)"
  log10 of IC50: 2.94
